Tested on: mononuclear cells from normal bone marrow (GM-CFC)
experiment: cells
applied.conditions: Homo sapiens, 1 h
pIC50: −log10 of the molar value.
measurement.type: pIC50

Notebook: CC(=O)OC(CCOP(=O)(NCCCl)NCCCl)OC(C)=O [acetaldoifosphamide] , pIC50 read as 4.90 to 4.94

* * *

System: KBM-3/AMSA
experiment: cells
Type: cell-based, human
applied.conditions: Homo sapiens
measurement.type: IC50 (nM)
Dear colleague, please return just the value in nM, with no unit written.

// field: IC50; key: CC(=O)OC(CCOP(=O)(NCCCl)NCCCl)OC(C)=O [acetaldoifosphamide] ; value = 680

* * *

experiment: in vitro
applied.conditions: human, bone marrow gm-cfc
measurement.type: cytotoxicity at 1 h

The value of cytotoxicity at 1 h measured for the compound CC(=O)OC(CCOP(=O)(NCCCl)NCCCl)OC(C)=O [acetaldoifosphamide] turned out to be 95 to 100%

* * *

experiment: Long-term suspension culture: GM-CFC regrowth on autologous irradiated adherent cell layers (Table 9)
Type: cell-based, human
applied.conditions: human, bone marrow gm-cfc; concentration used in long-term suspension cultures; read-out: detectable GM-CFC abolished
measurement.type: cytotoxicity at 1 h

Record CC(=O)OC(CCOP(=O)(NCCCl)NCCCl)OC(C)=O [acetaldoifosphamide] . Reported cytotoxicity at 1 h: > 99%

* * *

System: HL-60
experiment: Clonogenic assay, drug in agar, prolonged exposure (Table 8, FIG. 11)
Type: cell-based
applied.conditions: Homo sapiens, drug added to agar plates
measurement.type: IC50 (nM)
// note: answer is a bare numeric in nM

So, CC(=O)OC(CCOP(=O)(NCCCl)NCCCl)OC(C)=O [acetaldoifosphamide] ? Its IC50 was 300

* * *

experiment: Stability in phosphate-buffered saline
applied.conditions: pbs, pH 7.4
measurement.type: half-life

Note to self: half-life recorded for CC(=O)OC(CCOP(=O)(NCCCl)NCCCl)OC(C)=O [acetaldoifosphamide] was > 80 h
